As shown below, each of these compounds has a reported MIC value.
# System: E. faecalis GC 2265
# Protocol: MIC, broth microdilution
# Experimental Conditions: Enterococcus faecalis, GC2265, E. faecalis GC 2265; Water pre-incubation

Use these answered entries as a reference point.
INSERT INTO results (compound, result) VALUES
  ('CCCCN(CC(=O)Nc1cc(N(C)C)c2c(c1O)C(=O)C1=C(O)[C@]3(O)C(=O)C(C(N)=O)=C(O)[C@@H](N(C)C)C3CC1C2)C(=O)OCOC(=O)c1ccc(OC)cc1 (some centres unmarked)', '8 µg/mL'),
  ('CCCN(CC(=O)Nc1cc(N(C)C)c2c(c1O)C(=O)C1=C(O)[C@]3(O)C(=O)C(C(N)=O)=C(O)[C@@H](N(C)C)[C@@H]3C[C@@H]1C2)C(=O)OCc1ccccc1', '8 µg/mL'),
  ('CCCN(CC(=O)Nc1cc(N(C)C)c2c(c1O)C(=O)C1=C(O)[C@]3(O)C(=O)C(C(N)=O)=C(O)[C@@H](N(C)C)[C@@H]3C[C@@H]1C2)C(=O)OCOC(=O)C1CCC1', '2 µg/mL'),
  ('CCCCN(CC(=O)Nc1cc(N(C)C)c2c(c1O)C(=O)C1=C(O)[C@]3(O)C(=O)C(C(N)=O)=C(O)[C@@H](N(C)C)[C@@H]3C[C@@H]1C2)C(=O)OCOC(=O)c1ccc(F)cc1', '8 µg/mL');

Let us examine a further case.
**Q:** Which measured MIC value corresponds to `CCCN(CC(=O)Nc1cc(N(C)C)c2c(c1O)C(=O)C1=C(O)[C@]3(O)C(=O)C(C(N)=O)=C(O)[C@@H](N(C)C)[C@@H]3C[C@@H]1C2)C(=O)OCC(C)C` ?
**A:** 8 µg/mL

###

# Test system: E. coli GC 2234
# Protocol: MIC, broth microdilution
# Experimental Conditions: Escherichia coli, GC2234, read-out: MINIMAL INHIBITORY CONCENTRATION MIC, pre-incubated in Water
Parameter: MIC

INSERT INTO assay_data (molecule, parameter, result) VALUES
  ('CCCCN(CC(=O)Nc1cc(N(C)C)c2c(c1O)C(=O)C1=C(O)[C@]3(O)C(=O)C(C(N)=O)=C(O)[C@@H](N(C)C)[C@@H]3C[C@@H]1C2)C(=O)OCOC(=O)c1cc(C)cc(C)c1', 'MIC', '> 64 mg/L'),
  ('CN(C)c1cc(NC(=O)CN(C(=O)OCOC(=O)c2ccc(C(C)(C)C)cc2)C(C)(C)C)c(O)c2c1C[C@H]1C[C@H]3[C@H](N(C)C)C(O)=C(C(N)=O)C(=O)[C@@]3(O)C(O)=C1C2=O', 'MIC', '> 64 mg/L'),
  ('CC(C)C(=O)OCOC(=O)N(CC(=O)Nc1cc(N(C)C)c2c(c1O)C(=O)C1=C(O)[C@]3(O)C(=O)C(C(N)=O)=C(O)[C@@H](N(C)C)[C@@H]3C[C@@H]1C2)C(C)(C)C', 'MIC', '16 mg/L'),
  ('CCCN(CC(=O)Nc1cc(N(C)C)c2c(c1O)C(=O)C1=C(O)[C@]3(O)C(=O)C(C(N)=O)=C(O)[C@@H](N(C)C)[C@@H]3C[C@@H]1C2)C(=O)OCOC(=O)c1ccc(-c2ccccc2)cc1', 'MIC', '> 64 mg/L');

**Q:** Which measured MIC value corresponds to `Cc1ccc(C(=O)OCOC(=O)N(CC(=O)Nc2cc(N(C)C)c3c(c2O)C(=O)C2=C(O)[C@]4(O)C(=O)C(C(N)=O)=C(O)[C@@H](N(C)C)[C@@H]4C[C@@H]2C3)C(C)(C)C)cc1` ?
**A:** > 64 mg/L
